These records show log10 IC50 for Cyclin-dependent kinase 2 (Homo sapiens, UniProt P24941).
# log10 transformed; quantity=IC50; unit=µM

Some compounds with known log10 IC50 results, for comparison:
NCCS(=O)(=O)c1cc(-c2ccc[nH]2)c2c3c(ccc(F)c13)NC2=O    -1.64
O=C1Nc2ccc(F)c3c(OCCCO)cc(-c4ccc[nH]4)c1c23    -1.74
NCCCNc1cc(-c2ccc[nH]2)c2c3c(ccc(F)c13)NC2=O    -1.32

Return log10 IC50 for the following compound: COc1cc(-c2ccc[nH]2)c2c3c(ccc(F)c13)NC2=O
-1.74

Return log10 IC50 for the following compound: NCCSc1cc(-c2ccc[nH]2)c2c3c(ccc(F)c13)NC2=O
-2.52

Return log10 IC50 for the following compound: CCOc1cc(-c2ccc[nH]2)c2c3c(ccc(F)c13)NC2=O
-1.11
